Can you tell me reverse-splicing fitness for the items I'm about to list?
B1: Azoarcus group I ribozyme (parent)
chain: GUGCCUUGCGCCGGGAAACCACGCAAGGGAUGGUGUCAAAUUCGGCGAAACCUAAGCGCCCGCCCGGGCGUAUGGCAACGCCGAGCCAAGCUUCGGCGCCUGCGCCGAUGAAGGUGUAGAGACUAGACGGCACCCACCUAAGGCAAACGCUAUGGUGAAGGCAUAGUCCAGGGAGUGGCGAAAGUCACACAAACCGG

# Variants of: B1
# protocol description: reverse-splicing fitness (ratio to wild type); higher = more active; in vitro selection; Mg2+ level not given
Reply briefly: the number, and no unit.

Recall and state the measured reverse-splicing fitness for C82U A111G A145C C150U C169G U176A .
0.0186

Provide only the value of recorded reverse-splicing fitness for C82G A111C A120G C169G U176G
0.0044

Provide measured reverse-splicing fitness value, entry: A111G A145G C150A U176A
0.297

Please indicate reverse-splicing fitness recorded for A111U A120U A145U C169A
0.00401

For C82A A111C A120G A145U C150A C169U U176A , write its reverse-splicing fitness.
0.017

Annotate the variant C82A A120G A145U with its measured reverse-splicing fitness.
0.0219

Report reverse-splicing fitness, nothing else, for this variant: C82G A111G A120G A145C C150G C169G U176A
0.00914

Annotate the variant A111C A120G A145G C150U C169A U176C with its measured reverse-splicing fitness.
0.0222

Identify measured reverse-splicing fitness corresponding to C82U A120C A145C C150G C169U U176G
0.00403

Supply reported reverse-splicing fitness belonging to this variant: C82A A111U A120U A145C C150A C169A U176G
0.00263

Quote reverse-splicing fitness reported for A120C A145C C150G C169G U176C please.
0.00582

Provide one value: measured reverse-splicing fitness of C82U A111U A145C C150G C169G U176C
0.00693

Please report reverse-splicing fitness for the following variant: C82U A111U A120C A145G C150G U176G
0.00575

Indicate its recorded reverse-splicing fitness; the variant in question is C82G A111C A120U A145G C150G C169U U176C
0.00748

Write down reverse-splicing fitness measured for item C82U A111G A145G C150U C169A
0.00982

Indicate the recorded reverse-splicing fitness value for this variant: C82A A111G A120C A145G C150A C169U U176G
0.00842

Assign reverse-splicing fitness to the following record: C82U A111U A145C C169G U176A
0.0234

Item A111G A120U A145U C150G C169G : provide reverse-splicing fitness
0.0082

State, in one line, measured reverse-splicing fitness of C82G A111C C150G C169G U176A
0.00734

Fill in reported reverse-splicing fitness for this entry: C82U A111G A145C C169G U176C
0.0119

Give reverse-splicing fitness for the following variant: C82G A111C A120U C150G C169A
0.00763

Give the reported reverse-splicing fitness for this variant. A111C C150A C169G
0.0124

Let me know recorded reverse-splicing fitness for C82U A111U A120G A145G C169U , thanks.
0.00849

Tell me measured reverse-splicing fitness for C82G A111C A120G A145U U176C please.
0.0232

Determine from records and report reverse-splicing fitness for C82A A111U A120G A145G C150A C169G U176G
0.00589

Identify measured reverse-splicing fitness associated with C82G A111G A120C A145U C169G
0.00799

Give recorded reverse-splicing fitness. C82G A145G C150U C169U U176G
0.0045

Using known records, supply reverse-splicing fitness for C82A A111C A120G C150U C169U U176G
0.00631

Identify reverse-splicing fitness associated with the variant A111G A120G A145C U176C
0.104

// fetch reverse-splicing fitness given entry C82U A111U A145G C150A C169A U176C
0.0216

State, in one line, measured reverse-splicing fitness of C82U A111G A120U C150G C169A U176A
0.00509

Please give measured reverse-splicing fitness of the following entry: C82U A111G A120G A145U
0.0174

Name the recorded reverse-splicing fitness of the variant listed here: C82A A145G C150A C169A U176C
0.0221

Return reported reverse-splicing fitness. Input variant: C82G A111C A120G C150U C169G
0.0113

Provide reverse-splicing fitness value for the following variant: C82A A111G C150U C169U U176C
0.0136

Name the recorded reverse-splicing fitness of the variant listed here: C82U A111C A120U A145G C150G U176C
0.00806

Specify reverse-splicing fitness for C82U A120U A145U C169A U176A and stop.
0.00185

Hello, please tell me recorded reverse-splicing fitness for this one: C82G A111U A120U A145G C150A C169G U176G
0.00257

Return value of reverse-splicing fitness for input C82U A120C C150U U176A , no commentary.
0.0291

Note reverse-splicing fitness for the variant shown: C82U C150A C169G
0.00731

Return reverse-splicing fitness for the following variant: C82A A111C A145C C150G C169U
0.0102

Could you please provide reported reverse-splicing fitness for C82G A145C C150G U176C ? Thanks!
0.0389

Consider the variant C82U A111G A120G C169G . State its measured reverse-splicing fitness.
0.0125

Identify measured reverse-splicing fitness associated with A111C A120C A145U C150A U176C
0.0526

For the variant C82G C150G U176C , give its measured reverse-splicing fitness value.
0.0287

Quick one: give measured reverse-splicing fitness for C82U A111G A120C A145G C150A C169U
0.0111

Entry C82G A111G A120G A145G C150U U176G needs its reverse-splicing fitness filled in; supply it.
0.00823

Determine its reported reverse-splicing fitness: C82G A111U A145U C150U C169U U176A
0.0142

Name the recorded reverse-splicing fitness of the item A111C A120C A145U C169G U176G in your answer.
0.00445

Kindly indicate its recorded reverse-splicing fitness. Item: A111U A145G C169G U176A
0.0249

Output measured reverse-splicing fitness for this item: C82A A111G A145G C150U C169A U176A
0.0167

Let me know recorded reverse-splicing fitness for A111C C150G U176A , thanks.
0.0504

Please give the documented reverse-splicing fitness of A111G A120G C150A C169U
0.0298

Identify reverse-splicing fitness associated with the variant C82A A120C A145C C150U U176G
0.00635

Please look at this variant and report its reverse-splicing fitness: C82A A111U A120U A145U C150A U176A
0.00486

Given the variant A111G A120U C150U C169U U176C , write its reported reverse-splicing fitness.
0.02

Provide measured reverse-splicing fitness value, entry: C82G A111C A120U A145C C150G C169U
0.00395

Note reverse-splicing fitness for the variant shown: C82A A111U A120C A145G C150A C169A
0.0122

Look up reverse-splicing fitness of C82G A111U A120C A145U C150U U176A and report it.
0.015

Please give measured reverse-splicing fitness of the following entry: C82G A111U A145U C150A U176C
0.0315

Fill in reported reverse-splicing fitness for this entry: A111U A145G C150G C169A U176A
0.0118

Input C82U A111U A120C A145U C150A C169U U176A , output reported reverse-splicing fitness.
0.0145

Fill in reverse-splicing fitness for record C82A A145G C150U C169U U176C
0.0136

State its reverse-splicing fitness for this variant: C82G A111U A145U C150G C169G U176C
0.00646

Please report reverse-splicing fitness for the following variant: C82G A111U C169U U176G
0.00639

Tell me reverse-splicing fitness reported for C82U A111C A120G A145C C150A C169U
0.00688

// Input: C82U A111C C150A C169A . Output its reverse-splicing fitness only.
0.00994

Retrieve reverse-splicing fitness measured for C82G A111C A120C A145G C169G U176C and print it.
0.0253

Provide measured reverse-splicing fitness value, entry: A111G A120C C150U C169A U176C
0.012

Answer with the recorded reverse-splicing fitness for the variant listed here: A111C A120C A145C C150U C169A
0.00837

Name the recorded reverse-splicing fitness of the variant listed here: A111G A120C A145C C150G U176C
0.0508

Name the recorded reverse-splicing fitness of the item C82U A120C U176A in your answer.
0.048

Specify reverse-splicing fitness for C82U A111U A120C A145G C169A and stop.
0.0083

Please give measured reverse-splicing fitness of the following entry: C82G A111G A120U C150A C169A U176A
0.00549

For the variant C82A A111C A120C A145U C150A C169U U176A , give its reported reverse-splicing fitness.
0.014

Return the recorded reverse-splicing fitness value; entry: C82A A111G A120G A145G C169U
0.0111

Return value of reverse-splicing fitness for input C82A A111G C150U C169A U176A , no commentary.
0.0185

Determine from records and report reverse-splicing fitness for C82G A111C A145U C150A U176G
0.0105

Find the measured reverse-splicing fitness of C82A A111U A120C A145C C169U U176G and report it.
0.00416

Please report the measured reverse-splicing fitness for C82G A111G A120G C150A C169U U176C
0.0176

Please supply the value of reported reverse-splicing fitness for the item A111G A145U C169A U176C
0.0203

// data source = the RNAGym collection of RNA variant scans (doi:10.1093/molbev/msab373)
